The measurements presented in this section are drawn from PubChem BioAssay AID1259407.

System: CCRIS mutagenicity, Ames/micronucleus/aberration tests
Assay: CCRIS mutagenicity studies
Conditions: Test System: AMES SALMONELLA TYPHIMURIUM; Strain/Indicator: TA100; Metabolic Activation: RAT, LIVER, S-9, AROCLOR 1254; Method: PREINCUBATION
Activity calls are given as the source filed them. The rule behind the calls is not given here.
Outcomes you can answer with include only these: Y = active, N = inactive

INSERT INTO measurements (compound, class) VALUES
  ('Nc1ccc2c(c1)CN1C(=O)c3ccccc3C1=N2', 'Y'),
  ('O=c1[nH]c(=O)n([C@H]2C[C@H](O)[C@@H](CO)O2)cc1/C=C/Br', 'N'),
  ('Cc1nn(C)c(NC(=O)CNCCCN2CCCCC2C)c1C(=O)c1ccccc1F (centres undefined)', 'Y');

Just curious, what result did CN(C)P(=O)(N(C)C)N(C)C get here? N

Just curious, what result did C=CC(=O)N(CC1CO1)CC1CO1 (centres undefined) get here? Y

Just curious, what result did Cc1cc2ccccc2c2cc3c(cc12)C=C[C@H](O)[C@H]3O get here? Y

Just curious, what result did Clc1cccc(Cl)c1Cl get here? N

Just curious, what result did Cc1ccccc1C get here? N

Just curious, what result did Oc1ccccc1 get here? N
